experimental_system: human insulin-like growth factor-I (IGF-I) (human, UniProt P05019 49-118)
experiment_summary: cell-based or functional assay
Known Max % Inhibition (333.3 nM), n = 1, IGF-I pTYR, BxPC3 cells of a selection of binders
Numbers only; they are read as %.

binder: mAb 7.234.2 (antibody, V domains shown, Kappa light chain (L5/JK3); also called 7.234.1; 7_234_1) VH: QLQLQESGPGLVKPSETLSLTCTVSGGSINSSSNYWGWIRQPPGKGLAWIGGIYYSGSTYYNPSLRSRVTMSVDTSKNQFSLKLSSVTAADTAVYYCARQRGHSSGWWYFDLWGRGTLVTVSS VL: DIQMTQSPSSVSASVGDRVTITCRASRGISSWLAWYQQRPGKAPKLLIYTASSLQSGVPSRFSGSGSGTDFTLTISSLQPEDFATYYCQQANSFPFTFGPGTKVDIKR
test_result: 97.3

// below: Max % Inhibition (333.3 nM), n = 1, IGF-I pTYR, BxPC3 cells requested for another binder
Request: Quick check: Max % Inhibition (333.3 nM), n = 1, IGF-I pTYR, BxPC3 cells of mAb 7.34.1 (antibody, V domains shown, Fully human XenoMouse hybridoma mAb, lambda light chain (V1-13/JL2); also called ATCC PTA-7423) VH: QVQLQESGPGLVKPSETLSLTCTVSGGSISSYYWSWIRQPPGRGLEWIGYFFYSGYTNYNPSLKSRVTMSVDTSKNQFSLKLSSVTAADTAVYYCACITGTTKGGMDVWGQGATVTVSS VL: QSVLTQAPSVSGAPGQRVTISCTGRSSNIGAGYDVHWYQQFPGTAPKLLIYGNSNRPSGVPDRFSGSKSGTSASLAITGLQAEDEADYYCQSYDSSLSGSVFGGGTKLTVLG ?
Response: 100
